TARGET SYSTEM: E3 ubiquitin-protein ligase XIAP (Homo sapiens) (UniProt P98170)
Sequence (P98170 whole entry, looked up): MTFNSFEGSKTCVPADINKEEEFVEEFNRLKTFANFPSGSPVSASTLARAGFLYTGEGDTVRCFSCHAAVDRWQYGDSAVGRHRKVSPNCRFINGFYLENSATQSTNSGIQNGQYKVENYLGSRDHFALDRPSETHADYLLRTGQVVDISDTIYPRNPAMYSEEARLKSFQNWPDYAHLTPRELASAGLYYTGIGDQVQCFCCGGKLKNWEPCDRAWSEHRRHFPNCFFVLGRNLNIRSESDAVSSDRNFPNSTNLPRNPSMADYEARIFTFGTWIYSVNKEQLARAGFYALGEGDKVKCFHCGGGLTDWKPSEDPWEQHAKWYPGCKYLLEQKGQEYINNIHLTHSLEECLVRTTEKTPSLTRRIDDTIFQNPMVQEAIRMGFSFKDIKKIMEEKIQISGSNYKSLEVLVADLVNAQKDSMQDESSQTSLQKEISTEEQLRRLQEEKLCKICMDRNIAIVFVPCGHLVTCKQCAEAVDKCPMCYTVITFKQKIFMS
RUN DESCRIPTION: XIAP binders, primary screen, biophysical, small-molecule microarray, fluorescence 635 nm (AID 1181);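 also: score merges 667 nm emission and signal to noise over triplicate slides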
ASSAY CONDITIONS: small-molecule microarray binding, higher = more signal
Categories are assigned from the measured composite z-score using these intervals: low bracket = under -0.05, middle bracket = from -0.05 up to 0.09, high bracket = 0.09 and over

Sample answers from the record:
State the class of the compound shown: `Cc1ccc(S[C@]2(C(=O)NCC(F)(F)F)CC(=O)N(Cc3ccccc3)[C@@H]2c2ccc(CO)cc2I)cc1` middle bracket

State the class of the compound shown: `O=C(N1CCCCC1)[C@@]1(CCS(=O)(=O)c2ccccc2)COC(c2ccc(OCCCO)cc2)=N1` high bracket

State the class of the compound shown: `COCCCNC(=O)[C@@]1(Sc2ccc(C)cc2)CC(=O)N(C2CCCCC2)[C@@H]1c1ccc(CO)cc1` low bracket

State the class of the compound shown: C=CCC(OC(C)=O)[C@@H]1[C@@H](N(Cc2cccc3ccccc23)C(=O)c2cccc3ccccc23)c2cc(OCCCO)ccc2N1C(=O)c1ccc(-c2ccccc2)cc1 (stereo partly drawn) low bracket

State the class of the compound shown: `Cc1ccc(S[C@]2(C(=O)NCC(F)(F)F)CC(=O)N(Cc3ccccc3C(F)(F)F)[C@@H]2c2ccc(CO)cc2I)cc1` high bracket

Continuing:
State the class of the compound shown: Cc1ccccc1C(O)C1C=CC2C(=O)N(C)C(=O)C2N1N(c1ccccc1)c1ccccc1 (stereo not drawn) high bracket

====

A collection of molecules and their measured composite Z-score
RUN DESCRIPTION: small-molecule microarray binders of probe aXIP, primary screen, biochemical, NeuroSMM set, 635/667 nm fluorescence (AID 1119);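 also: probe is the protein aXip251-270 applied at 1 µg/mL to compound-printed slides; binding of probe to printed compounds measured as 667 nm fluorescence plus signal to noise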
ASSAY CONDITIONS: higher = more signal, called active from +8 up or from −8 down
Active and inactive are the calls of the source.

Examples with answers:
Record summary for `CCCC[C@@H]1C[C@H]1[C@@H](NC(=O)c1cccs1)c1ccc(C(F)(F)F)cc1` : reported composite Z-score = -0.496 (inactive)

Record summary for CN1C(=O)C2C=CC(C(O)c3cccc(O)c3)N(Nc3ccccc3)C2C1=O (stereo not given) : reported composite Z-score = 0.501 (inactive)

Record summary for CCCCN1CC=CC23O[C@@H]4/C=C\CCC(C)OC(=O)C4[C@H]2C(=O)N(C(CO)C(C)C)[C@@H]3C1=O (stereo not given in full) : reported composite Z-score = 0.443 (inactive)

Continuing:
Record summary for `CO[C@H]1O[C@H](CO)[C@@H](OC(=O)Nc2ccccc2-c2ccccc2)[C@H](OC(=O)Nc2ccc3c(c2)OCO3)[C@H]1OC(=O)Nc1ccc2c(c1)OCO2` : reported composite Z-score = 0.806 (inactive)

Record summary for `C=C(COC)C(=O)CC[C@@H](OC(=O)c1cccnc1)c1ccc(OCCO)cc1` : reported composite Z-score = 0.517 (inactive)

====

Test system: XIP peptide (Xip251-270)
RUN DESCRIPTION: small-molecule binders of XIP peptide, primary screen, biochemical, small-molecule microarray, fluorescence 635/667 nm, 0.5 µg/mL protein (AID 1183)
ASSAY CONDITIONS: small-molecule microarray binding, fluorescence 635 nm; higher = more signal
# if value of composite z-score reaches 0.6, tag 1 (yes); if it stays below, tag 0 (no)

Sample answers from the record:
Is composite z-score for `CCCCCCc1nc(C2CC2)cc2c1[Si](C(C)C)(C(C)C)OC2` at or above 0.6? 0 (no)

Is composite z-score for `CO[C@]12C=C(Br)[C@@H](C[C@@H]1c1cccc(C)c1)[C@@]1(CO1)C2=O` at or above 0.6? 0 (no)

Is composite z-score for `COCCOC(=O)N1C(=O)[C@@]2(c3cc(C#CC4=CCCCC4)ccc31)[C@H](c1ccccc1OCCO)N1[C@H](c3ccccc3)[C@H](c3ccccc3)OC(=O)[C@H]1[C@@H]2C(=O)Nc1nc2ccccc2s1` at or above 0.6? 0 (no)

Continuing:
Is composite z-score for `COc1ccc(NC(=O)O[C@H]2[C@H](OC(=O)Nc3ccccc3)[C@@H](OC(=O)Nc3ccccc3)[C@@H](OC)O[C@@H]2CO)cc1` at or above 0.6? 1 (yes)

Is composite z-score for `CCOC(=O)C1=CC[C@@H](c2ccccc2C(F)(F)F)N(S(=O)(=O)c2ccc(C)cc2)[C@H]1c1ccc(C#N)cc1` at or above 0.6? 0 (no)

Is composite z-score for COC(=O)C1=CC(CCCO)=CC(C2CC2)N(C)C=C1C(=O)OC (stereo not given) at or above 0.6? 0 (no)

Is composite z-score for `[N-]=[N+]=Nc1ccccc1C[C@]1(C(N)=O)N=C(c2ccc(OCCCO)cc2)O[C@H]1c1ccccc1N=[N+]=[N-]` at or above 0.6? 1 (yes)

Is composite z-score for Cc1cc(C)c(C(O)C2C=CC3C(=O)NC(=O)C3N2Nc2ccc(Cl)cc2Cl)c(C)c1 (stereo not given) at or above 0.6? 0 (no)

Is composite z-score for CCCCC(O)C1C=CC2C(=O)N(c3ccccc3)C(=O)C2N1Nc1ccc(C(C)C)cc1 (stereo not given) at or above 0.6? 1 (yes)

Is composite z-score for C=CCC(OC(C)=O)[C@@H]1[C@@H](N(Cc2cc3ccccc3o2)C(=O)c2ccc(-c3ccccc3)cc2)c2cc(OCCCO)ccc2N1C(=O)c1ccc2ccccc2c1 (stereo not given in full) at or above 0.6? 0 (no)

Is composite z-score for `COC(=O)[C@@]1(Cc2ccc(F)cc2)[C@H]2c3cc(C(=O)N4CCCC4)n(CCc4ccc(O)c(O)c4)c3C[C@H]2CN1C(=O)c1ccccc1` at or above 0.6? 0 (no)

Is composite z-score for CC(C)(C)OC(=O)CC[C@]1(C(=O)NCC(O)CO)N=C(c2ccc(OCCCO)cc2)O[C@H]1c1ccccc1 (stereo not given in full) at or above 0.6? 1 (yes)

Is composite z-score for NC(=O)N1C(=O)C2C(C1=O)C1C=C(CCCO)C2C(c2cccs2)N1Cc1cccc(OC(F)(F)F)c1 (stereo not given) at or above 0.6? 0 (no)

Is composite z-score for CC(CO)N1C(=O)[C@@H]2[C@H]3C(=O)OCC=C[C@H]3OC23C=CCN(Cc2ccccc2)C(=O)[C@@H]13 (stereo not given in full) at or above 0.6? 0 (no)

Is composite z-score for `COc1ccc([Si](C)(C)[C@H]2[C@H](CC(=O)N(CCO)Cc3ccccc3)O[C@@]3(C(=O)N(Cc4cccc(N5CCOC5=O)c4)c4ccccc43)[C@@H]2C)cc1` at or above 0.6? 1 (yes)
